pKi reference
- Test Target: Mcl-1 (Homo sapiens, UniProt Q07820)
- Sequence (Q07820 whole entry): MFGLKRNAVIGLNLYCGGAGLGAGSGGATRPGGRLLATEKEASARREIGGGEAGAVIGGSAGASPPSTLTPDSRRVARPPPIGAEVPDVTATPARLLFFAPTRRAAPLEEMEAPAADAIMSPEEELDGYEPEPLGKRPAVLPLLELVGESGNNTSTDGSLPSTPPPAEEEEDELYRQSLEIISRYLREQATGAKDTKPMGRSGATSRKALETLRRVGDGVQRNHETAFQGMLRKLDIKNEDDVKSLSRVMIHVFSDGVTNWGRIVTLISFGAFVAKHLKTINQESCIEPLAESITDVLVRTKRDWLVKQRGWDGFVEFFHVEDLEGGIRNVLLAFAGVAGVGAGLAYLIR
- Test Method Notes: Fluorescence polarization competition with fluoresceinated Bim BH3
- Type: binding
No end group written: not given here.
# pKi is unitless: minus log10 of the molar concentration; print number only

- Ac-RPEIWIAQELRRAGDVLNAYYAR-NH2 [FA1]: 9.00

Proceeding to the next substance to report its pKi.
Exam item: # pKi lookup, item RPEIWMAQVLRRFGDLLNAYYAR [FD2]
Marked response: 9.00
